# Tested on: Cryptococcus neoformans
# assayComment: Antifungal activity against Cryptococcus neoformans after 72 hrs
# Type: functional
Threshold-based label: MIC under 2 µM gives y, MIC not under 2 µM gives n.

molecule	classAssignment
CCCCCCCCCCNC1CCc2cccc(OC)c2C1 (centres undefined)	y
COc1ccc(NC2CCc3cc(O)ccc3C2)cc1 (centres undefined)	n
CCCCNC1CCc2ccc(OC)cc2C1 (centres undefined)	n
CCCCNC1CCc2cccc(O)c2C1 (centres undefined)	n
Oc1cccc2c1CCC(Nc1ccc(Cl)cc1)C2 (centres undefined)	n
COc1cccc2c1CC(N)CC2 (centres undefined)	n
CCCCCCCCCCCCNC1CCc2ccc(OC)cc2C1 (centres undefined)	y
CCCCCCCCCNC1CCc2ccc(O)cc2C1 (centres undefined)	n
CCCCCCCCCNC1CCc2cccc(OC)c2C1 (centres undefined)	n
Oc1cccc2c1CC(Nc1ccccc1)CC2 (centres undefined)	n
CCCCNC1CCc2ccc(O)cc2C1 (centres undefined)	n
COc1ccc2c(c1)CC(Nc1ccccc1)CC2 (centres undefined)	n

----------
# Test system: Candida albicans
# assayComment: Antifungal activity against fluconazole-resistant Candida albicans 01010 after 24 hrs
# Assay type: functional
Recorded MIC by entry
experimentalReadout: MIC (µM)

compound	readoutRelation	valueReported
CCCCCCCCCNC1CCc2c(cccc2OC)C1 (centres undefined)	=	16
CCC(C)n1ncn(-c2ccc(N3CCN(c4ccc(OCC5COC(Cn6cncn6)(c6ccc(Cl)cc6Cl)O5)cc4)CC3)cc2)c1=O (centres undefined)	>	64
C[C@@H]1[C@H](O)[C@@H](C)/C=C/C=C/C=C/C=C/C=C/C=C/C=C/[C@H](O[C@@H]2O[C@H](C)[C@@H](O)[C@H](N)[C@@H]2O)C[C@@H]2O[C@](O)(C[C@@H](O)C[C@@H](O)[C@H](O)CC[C@@H](O)C[C@@H](O)CC(=O)O[C@H]1C)C[C@H](O)[C@H]2C(=O)O	=	0.64
CN(C/C=C/C#CC(C)(C)C)Cc1cccc2ccccc12	=	32
CCCCCCCCNC1CCc2cc(OC)ccc2C1 (centres undefined)	=	16
CCCCCCCCNC1CCc2cc(O)ccc2C1 (centres undefined)	=	4
CCCCCCCCCCNC1CCc2c(O)cccc2C1 (centres undefined)	=	16
CCCCCCCCCCNC1CCc2c(cccc2OC)C1 (centres undefined)	=	8
CCCCCCCCCCNC1CCc2cc(O)ccc2C1 (centres undefined)	=	4

----------
Recorded MIC by entry
# Tested on: Cryptococcus neoformans
# assayComment: Antifungal activity against Cryptococcus neoformans after 72 hrs
# Assay type: functional

compound	assaySystem	readoutRelation	MIC / µM
CCCCCCCCNC1CCc2cccc(O)c2C1 (centres undefined)	Cryptococcus neoformans	=	8
COc1cccc2c1CCC(NCc1ccccc1)C2 (centres undefined)	Cryptococcus neoformans	=	64
CCCCCCCCCCNC1CCc2c(cccc2OC)C1 (centres undefined)	Cryptococcus neoformans	=	1
COc1ccc(NC2CCc3c(O)cccc3C2)cc1 (centres undefined)	Cryptococcus neoformans	>	64
CCCCCCCCCCCCCCNC1CCc2cc(OC)ccc2C1 (centres undefined)	Cryptococcus neoformans	=	64
COc1cccc2c1CC(NCc1ccccc1)CC2 (centres undefined)	Cryptococcus neoformans	>	64
COc1ccc2c(c1)CC(N)CC2 (centres undefined)	Cryptococcus neoformans	>	64
CCCCCCCCNC1CCc2cc(O)ccc2C1 (centres undefined)	Cryptococcus neoformans	=	8
CCCCCCCCNC1CCc2cccc(OC)c2C1 (centres undefined)	Cryptococcus neoformans	=	16
CCCCCCCCCCCCCCNC1CCc2cccc(OC)c2C1 (centres undefined)	Cryptococcus neoformans	=	32
CCCCCCCCCCCCCCNC1CCc2c(O)cccc2C1 (centres undefined)	Cryptococcus neoformans	=	8
CCCCCCCCNC1CCc2c(O)cccc2C1 (centres undefined)	Cryptococcus neoformans	=	32
CCCCCCCCCCNC1CCc2cc(O)ccc2C1 (centres undefined)	Cryptococcus neoformans	=	1
Oc1cccc2c1CC(NCc1ccccc1)CC2 (centres undefined)	Cryptococcus neoformans	>	64

----------
# System: Fonsecaea compacta
# assayComment: Antifungal activity against Fonsecaea compacta
# Type: functional
Threshold-based label: MIC under 20 µM gives fulfilled, MIC not under 20 µM gives not fulfilled.

compound	classAssignment
Oc1cccc2c1CC(NCc1ccccc1)CC2 (stereo not drawn)	not fulfilled
CCCCCCCCCNC1CCc2c(O)cccc2C1 (stereo not drawn)	fulfilled
CCCCCCCCCCCCNC1CCc2c(O)cccc2C1 (stereo not drawn)	not fulfilled
OC(Cn1cncn1)(Cn1cncn1)c1ccc(F)cc1F	fulfilled
COc1ccc(NC2CCc3ccc(OC)cc3C2)cc1 (stereo not drawn)	not fulfilled
COc1cccc2c1CC(N)CC2 (stereo not drawn)	not fulfilled
CCCCNC1CCc2cccc(O)c2C1 (stereo not drawn)	not fulfilled
COc1ccc2c(c1)CC(NCc1ccccc1)CC2 (stereo not drawn)	not fulfilled
CCCCCCCCCCNC1CCc2cc(O)ccc2C1 (stereo not drawn)	fulfilled
CCCCCCCCCNC1CCc2ccc(OC)cc2C1 (stereo not drawn)	fulfilled
COc1ccc(NC2CCc3cc(OC)ccc3C2)cc1 (stereo not drawn)	not fulfilled
CCCCNC1CCc2cc(OC)ccc2C1 (stereo not drawn)	not fulfilled
CCCCCCCCCCCCCCNC1CCc2c(O)cccc2C1 (stereo not drawn)	not fulfilled

----------
# Test system: Fonsecaea compacta
# assayComment: Antifungal activity against Fonsecaea compacta
# Assay type: functional
Recorded MIC by entry

molecule	MIC
CCCCCCCCCCCCNC1CCc2c(cccc2OC)C1 (stereo not drawn)	8 µM
Oc1ccc2c(c1)CC(Nc1ccc(Cl)cc1)CC2 (stereo not drawn)	32 µM
CCCCCCCCCCNC1CCc2cccc(O)c2C1 (stereo not drawn)	64 µM
CCCCCCCCCCCCNC1CCc2ccc(OC)cc2C1 (stereo not drawn)	8 µM
Oc1cccc2c1CC(Nc1ccc(Cl)cc1)CC2 (stereo not drawn)	64 µM
COc1cccc2c1CCC(NCc1ccccc1)C2 (stereo not drawn)	32 µM
CCCCCCCCCNC1CCc2ccc(O)cc2C1 (stereo not drawn)	8 µM
CCCCCCCCNC1CCc2cc(O)ccc2C1 (stereo not drawn)	2 µM
Oc1ccc2c(c1)CCC(Nc1ccccc1)C2 (stereo not drawn)	64 µM
COc1ccc(NC2CCc3ccc(O)cc3C2)cc1 (stereo not drawn)	> 64 µM
CCCCCCCCCCCCNC1CCc2cccc(OC)c2C1 (stereo not drawn)	8 µM
NC1CCc2cccc(O)c2C1 (stereo not drawn)	32 µM
COc1cccc2c1CCC(N)C2 (stereo not drawn)	64 µM
COc1cccc2c1CC(NCc1ccccc1)CC2 (stereo not drawn)	> 64 µM
COc1ccc2c(c1)CCC(NCc1ccccc1)C2 (stereo not drawn)	> 64 µM
CCCCCCCCCCNC1CCc2cc(OC)ccc2C1 (stereo not drawn)	8 µM
Oc1cccc2c1CC(Nc1ccccc1)CC2 (stereo not drawn)	64 µM
COc1cccc2c1CC(Nc1ccccc1)CC2 (stereo not drawn)	> 64 µM
COc1ccc2c(c1)CC(Nc1ccc(Cl)cc1)CC2 (stereo not drawn)	> 64 µM
COc1ccc2c(c1)CC(Nc1ccccc1)CC2 (stereo not drawn)	> 64 µM
CCCCCCCCCCCCNC1CCc2cccc(O)c2C1 (stereo not drawn)	8 µM
COc1cccc2c1CCC(Nc1ccc(Cl)cc1)C2 (stereo not drawn)	> 64 µM
CCCCCCCCCCCCCCCCCCNC1CCc2c(O)cccc2C1 (stereo not drawn)	> 64 µM
CCCCCCCCNC1CCc2cc(OC)ccc2C1 (stereo not drawn)	8 µM
COc1ccc(NC2CCc3cc(O)ccc3C2)cc1 (stereo not drawn)	> 64 µM
COc1cccc2c1CCC(Nc1ccccc1)C2 (stereo not drawn)	> 64 µM
COc1ccc(NC2CCc3c(O)cccc3C2)cc1 (stereo not drawn)	> 64 µM
CCCCCCCCCCCCCCCCCCNC1CCc2cc(O)ccc2C1 (stereo not drawn)	> 64 µM

----------
# Test system: Cryptococcus neoformans
# assayComment: Antifungal activity against Cryptococcus neoformans after 72 hrs
# Type: functional
Threshold-based label: MIC under 20 µM gives fulfilled, MIC not under 20 µM gives not fulfilled.

compound	classAssignment
Oc1ccc2c(c1)CC(Nc1ccc(Cl)cc1)CC2 (centres undefined)	fulfilled
CCCCCCCCCCCCNC1CCc2cccc(O)c2C1 (centres undefined)	not fulfilled
CCCCCCCCCNC1CCc2c(O)cccc2C1 (centres undefined)	fulfilled
CCCCCCCCCNC1CCc2cc(OC)ccc2C1 (centres undefined)	fulfilled
NC1CCc2cccc(O)c2C1 (centres undefined)	not fulfilled
CCCCCCCCCNC1CCc2cc(O)ccc2C1 (centres undefined)	fulfilled
COc1ccc2c(c1)CC(Nc1ccc(Cl)cc1)CC2 (centres undefined)	not fulfilled
CCCCNC1CCc2c(O)cccc2C1 (centres undefined)	not fulfilled
CCCCCCCCCCCCCCCCCCNC1CCc2c(cccc2OC)C1 (centres undefined)	not fulfilled
COc1cccc2c1CCC(N)C2 (centres undefined)	not fulfilled
CCCCCCCCCNC1CCc2c(cccc2OC)C1 (centres undefined)	fulfilled
CCCCCCCCNC1CCc2cc(OC)ccc2C1 (centres undefined)	fulfilled
COc1ccc2c(c1)CCC(N)C2 (centres undefined)	not fulfilled
CCCCCCCCCCNC1CCc2c(O)cccc2C1 (centres undefined)	fulfilled
CCCCCCCCNC1CCc2c(cccc2OC)C1 (centres undefined)	fulfilled
CCCCCCCCCCCCNC1CCc2c(O)cccc2C1 (centres undefined)	not fulfilled
Oc1cccc2c1CC(Nc1ccc(Cl)cc1)CC2 (centres undefined)	not fulfilled
CCCCNC1CCc2cc(OC)ccc2C1 (centres undefined)	not fulfilled
COc1ccc2c(c1)CCC(Nc1ccccc1)C2 (centres undefined)	not fulfilled
CCCCCCCCCCCCCCNC1CCc2c(cccc2OC)C1 (centres undefined)	not fulfilled
CCCCCCCCCCCCCCCCCCNC1CCc2cccc(O)c2C1 (centres undefined)	not fulfilled
Oc1ccc2c(c1)CCC(NCc1ccccc1)C2 (centres undefined)	not fulfilled
CCCCCCCCCCCCNC1CCc2cccc(OC)c2C1 (centres undefined)	fulfilled
NC1CCc2ccc(O)cc2C1 (centres undefined)	not fulfilled
Oc1ccc2c(c1)CCC(Nc1ccc(Cl)cc1)C2 (centres undefined)	fulfilled
CCCCCCCCCCCCCCCCCCNC1CCc2ccc(OC)cc2C1 (centres undefined)	not fulfilled
CCCCCCCCCCNC1CCc2ccc(OC)cc2C1 (centres undefined)	fulfilled
CCCCCCCCCCNC1CCc2cc(OC)ccc2C1 (centres undefined)	fulfilled
